assay: yeast display, Sf9 membrane polyspecificity reagent, FACS + sequencing; frameworks hold sequencing errors
reportedProperty: polyreactivity (PSR sort gate)

QVQLVESGGGLVQAGGSLRLSCAASGITFSHNAMGWSRPAPGKERELVAVIRWSGGRTYYADSVKGRFTISRDNAKNTVYLQMNSLKPEDTAVYYCAARPSTAFPYGKIMDYWGQGTQVTVSS low polyreactivity
QVQLVESGGGLVQAGGSLRLSCAASGRIFSTYTMGWYRQAPGKEMELVAAIRANGGSTYYADSVKGRFTISRDNAKNTVYLQMNSLKPEDTAVYYCAALYRRYPYHYDSWGQGTQVTVSS high polyreactivity
QVQLVESGGGLVHAGGRLRLSCAASGRTLAPYAMGWYRQAPGKERELVADIDRGGGSTYYADSVTGRFTISRDNAKNTVYLQMNSVKPEDTAVYYCYVDETGVLVAYTFDYWGQGTQVTVSS low polyreactivity
QVQLVESGGGLVQAGGSLRLSCAASGSTFVRNAMGWYRQAPGKERELVAAISRSGGRTYYADSVKGRFTISRDNAKNTVYLQMNSLKPEDTAVYYCAKKRSKPISFDYWGQGTQVTVSS high polyreactivity

---

test: yeast display, Sf9 membrane polyspecificity reagent, FACS + sequencing; frameworks hold sequencing errors
reportedProperty: polyreactivity (PSR sort gate)

QVQLVESGGGLVQAGGSLRLSCAASGSIFLAKAMGWYRQAPGKERELVAAINYADSVKGRFTISRDNAKNTVYLQMNSLKPEDTAVYYCYSKYDYWGQGTQVTVSS low polyreactivity
QVQLGESGGGLVQAGGSLRLSCAASGNTFVSNAMGWYRQAPGKERELVAAINSGGSTNYADSVKGRFTISRDNAKNTVYLQMNSLKPEDTAVYYCNKDYDYPQRYWMDYWGQGTQVTVSS low polyreactivity
QVQLVESGGGLVQAGGSLRLSCAASGSIFIAYGMGWYRQEPGKERELVAAITVSGGNTYYADSVKGRFTISRDNAKNTVYLQMNSLKPEDTAVYYCAADYWYYYGKVLYDYWGQGTQVTVSS low polyreactivity

---

experiment: yeast display, Sf9 membrane polyspecificity reagent, FACS + sequencing; frameworks hold sequencing errors
reportedProperty: polyreactivity (PSR sort gate)

QVQLVESGGGLVQAGGSLRLSCAASGSTFGSNAMGWYRQAPGKERELVATITRRSGSTYYADSVKGRFTISRDNAKNTVYLQMNSLKPEDTAVYYCARVGFWLQYDYWGQGTQVTVSS high polyreactivity
QVQLVESGGVLVQAGGSLRLRCAASGRIFSRYTMGWYRQAPGKERELVAAIRNTGSTNYADSVKGRFTISRDNAKNTVYLQMNSLKPEDTAVYYCNARTAYGAYHYYYPQRMDYWGQGTQVTVSS high polyreactivity
QVQLVESGGGLVQAGGSLRLSCAASGRTFSGYAMGWYRQAPGKEREFVAAITSSGGSTYYADSVKGRFTISRDNAKNTVYLQMNSLKPEDTAVYYCAARIRHFSVGYYYWGQGTQVTVSS high polyreactivity

---

test: yeast display, Sf9 membrane polyspecificity reagent, FACS + sequencing; frameworks hold sequencing errors
reportedProperty: polyreactivity (PSR sort gate)

QVHLVESGGGLVQAGGRLRLSCAASGRIFYTYAMGWYRQAPGKERELVAAITSGGSTYYADSVKGRFTISRDNAKNTVYLQMNSLKPEDTAVYYCNKVSYYRNEYWGQGSQVTVSS high polyreactivity
QVQLVESGGGLVQAGGSLRLSCAASGFTFVRYVMGWYRQAPGKERELVAAISRSGGSTHYADSVKGRFTISRDNAKNTVYLQMNSLKPEDTAVYYCNAYGYRHRGNGYWGQGTQVTVSS high polyreactivity
QVQLVESAGGLVQAGGSLRLSSDASGFTFYRYAIGWYIQAPGKEREFVAAISWRGTSTYYADSVKGRFKISRDNANNTVYLQMNSLKPEETAVYYCTARRDICWGYHMDYWGQGTQVTVSS high polyreactivity

---

test: yeast display, Sf9 membrane polyspecificity reagent, FACS + sequencing; frameworks hold sequencing errors
reportedProperty: polyreactivity (PSR sort gate)

Guide cases for polyreactivity (PSR sort gate), answers given:
QVQLVESAAGLVQAGGSLRLSGAASGRIFRYNAMGGYRQAPGNERELVAAISSGGSTNYADSVKGRFTTSRDNAKNTVYLQMNSLKPEDTAVYYCNADSVHRYPGWGYDYWGLGTQVTVSS low polyreactivity
QVQLVESGGGLVQAGGSLRLSCAASGRIFKYYAKGWYIQAPGKERELVAAINRDGGRTYYADSVKGRFTISRDNAKNTVYLQMNSLKPEDTAVYYCAASYGYVYTTSLDYWGQGTQVTVSS low polyreactivity
QVQLGESGGGLVQAGGSLRLSCAASGIIFRYYAMAWYRQAPGKERELVAAISSSTGNTYYADSVKGRFTISRDNAKNTVYLQMNSLIPEDTAVYYCAARTRQISIVGYNYWGQGTQVTVSS high polyreactivity
QVQLVESGGGLVQAGGSLRLSCAASGSIFSQYAMGWYRQAPGKERELVAAISRSGGTTYYADSVKGRFTISRDNAKNTVYLQMNSLKPEDTAVYYCAADLKARRGSYDRFYYWGQGTQVTVSS high polyreactivity

Look up polyreactivity (PSR sort gate): "QVQLVESGGGLVQAGGSLRLSCAASGFTLYRNAMGWNRQAPGKERELVAAISSSGGRTYYADSVKGRFTISRDNAKNTVYLQMNSLKPEDTAVYYCAADFYRYGPQLGYWGQATQVTVSS"
high polyreactivity

Look up polyreactivity (PSR sort gate): "QVQLVESGGALVQAGGSLRLSCAASGSIFYVYAMGWYRQAPGKEREFVAAITWSGGRTYYADSVKGRFTISRDNAKNTVYLQMNSLKPEDTAVYYCAAGKYRYTYYALEYDYWGQGTQVTVSS"
low polyreactivity

Look up polyreactivity (PSR sort gate): "QVQLVESGGGLVQAGGSLRLSCAASGFTFLRNAMGWYRQAPGKERELVAAISRSDRTNYADSVKGRFTISRDNAKNTFYLQMNSLKPEDTAVYYCNARHSYWTGRRVTDDYDYWGQGTQVTVSS"
high polyreactivity

Look up polyreactivity (PSR sort gate): "QVQLVESGGGLVQAGGSLRLSCAASGLTFAINTMGWYRPAPGTERELVAAITGSGGSTYYADSVKGRFTISRDNAKNTVYLQMNSLKPEDTAVYDCAAELLYVQGYAMDYWGQGTQVTVSS"
low polyreactivity

Look up polyreactivity (PSR sort gate): "QVQHVESGGGLVQAGGSLRLSCAASRSTFYYYAMGWYRQAPGKERELVAAISRGGGSTYYADSVKGRFTISRDNAKNTVYLQMNSLKPEDTADDYCAARRVGGGFYTWRNPAYEYWGQGTQVTVSS"
high polyreactivity

Look up polyreactivity (PSR sort gate): "QVQLQESGGGLVQAGGSLRLSCAASGNISSYYRMGWYRQAPGKEREFVATIAVGGTTNYADSVKGRFTISRDNAINTVFLQRNSLNTEDTAVCFCAANSTQYTWFDYWGQGTQVPVSS"
low polyreactivity

Look up polyreactivity (PSR sort gate): "QLQLVESGGGLVQAGGSLRLSCAASGRTFQGYAMGWYRQAPGKERELVAAISRSGGRTYYADSVKGRFTISRDNAKYTVYLQMNSLKPEDTAVYYCCTEAFRDYGYWGQGTQVTVSS"
high polyreactivity

Look up polyreactivity (PSR sort gate): "QVQLVESGGGLVQAGGSLRLSCAASGRTFNGYAMGWYRQAPGKERELVAAITWNGGRTSYADSVKGRFTISRDNAKNTVYLQMNSLKPEDTAVYYCATAVLYPYFFSNMDYWGQGTQVTVSS"
low polyreactivity

Look up polyreactivity (PSR sort gate): "QVQLVESGGGLVQAGGSLRLSCAASGIIFYAYAMGWYRQAPGKERELVARISRGGSTNYADSVKGRFTISRDNAKNTFYLQMNSLKPEDTAVYYCAAYYAYLRYGGLYEYWGQGTQVTVSS"
high polyreactivity

Look up polyreactivity (PSR sort gate): "QVQLVESGGGLVQAGGSLRLSCAASGFIFQSYAMGWYRQAPGKERQLVAAISYTGGSTYYADSVKGRFTISRDNAKNTVYLQMNSLKPEDTAVYYCARSYYTNGNALKRDYWGQGTQVTVSS"
high polyreactivity

Look up polyreactivity (PSR sort gate): "QVQLVESGGGLVQAGGSLRLSCAASGSTFLRNAMGWYREAPGKERELVAAISTRGGSTYYADSVKGRFTISRDNAKNTVNLQMNSLKPEDTADYYCAAVATRRYDYWGQGTQVTVSS"
high polyreactivity

---

assay: yeast display, Sf9 membrane polyspecificity reagent, FACS + sequencing; frameworks hold sequencing errors
reportedProperty: polyreactivity (PSR sort gate)

Guide cases for polyreactivity (PSR sort gate), answers given:
QVQLVESGGGLVQAGGSLRLSCDASGSIFRGNAMGWYRQAPGKERELVATITNGGSTNYADSVKGRFTISRDNAKNTVYLQMNSLKPEDTAVYYCNADHSYHIASTRHVDYWGQGTQVTVSS low polyreactivity
QVQLVESGGGLVQAGGSLRLSFAASGHTFRYYAMGWYRQAPGKERELVAAITGGGGSTYYADSVKGRFTISRDNAKNTVYFQMNSLKPEDTAVYYCATGGVSGMVGGDYWGQGTQVTVSS low polyreactivity
QVQLVESGGGLVQAGGSLRLSCAASGFIIRGNVMGWSRQAPGKERELVAAISGRGGSTYYADSVKGRFTISRDNAKNTVYLQRNILKPEDTGVYYCNAAGLYNSRLDYWGQGTQVTVSS high polyreactivity
QDQLVESGGGLVQAGGSLRLSSAASGRIFKWNAMGWYRPAPGTERQLVAAIRWSGTSTYADSVKGRFTISRDNAKNTVYLHMNSLKPEDTAVYYCAAQDVSAPGWWLHYWGQGTQVTVSS low polyreactivity

Alright, here's another sequence for you.
Look up polyreactivity (PSR sort gate): "QVQLEESGGGLVQAGGSLRLSCAASGRIYRYYDMGWYRQAPGKEREFVAAITRSGAITYYADSLKGRFTISRDNAKNTVYLQMNSLKPEDTAVYYCAAVDDDYSIVWYDYWGQVTQVTVSS"
low polyreactivity

This collection of values is drawn from the nanobody polyreactivity screen of Harvey et al. (2022).
